target: Human immunodeficiency virus type 1 reverse transcriptase (Human immunodeficiency virus 1, UniProt Q72547); test: Inhibition of ribonuclease H activity of HIV1 reverse transcriptase using as poly(dC)-[3H]poly(rG) as substrate
Below is a list of entries, each paired with its recorded IC50 value.

>>> print(df.to_string())
                              sample_smiles  assay_endpoint  observed_measurement
0  O=C1OC(c2ccc(Cl)cc2)=N/C1=C/c1c(O)ccc2ccccc12            IC50              > 100 µM
1   Cc1ccc(C(=O)N/N=C/c2c(O)ccc3ccccc23)cc1            IC50              > 100 µM
2          COc1ccccc1/C=N/NC(=O)c1ccc(O)cc1            IC50              > 100 µM
3  Nc1cccc(C(=O)N/N=C/c2ccc([N+](=O)[O-])o2)c1            IC50              > 100 µM
4  O=C1Nc2ccccc2/C1=N/Nc1nc(-c2ccc(O)c(O)c2)cs1            IC50                  2 µM

Which value of IC50 has been reported for O=[N+]([O-])c1cccc(/C=N/NS(=O)(=O)c2ccc(Cl)cc2)c1O in the records? 96 µM

So what's the measured IC50 for this one? Cc1ccc(S(=O)(=O)NNC(=O)c2nc3ccccc3c(=O)[nH]2)cc1 76 µM
